Data provenance is PubChem BioAssay (EPA / NIEHS).

assay: APR_HepG2_MitoMass_1hr: Apredica 1-hour HepG2 Assay for Mitochondrial Mass (AID 2282674); conditions: high-content imaging, actives raise or lower the signal
The source made the active and inactive calls. The calls were made as follows: active = hit-call score of the fitted dose curve at least 0.9, where 1 is the maximum; inactive = score below 0.9.
Answer with one of the outcomes given here: active, inactive

### Prompt I would be grateful if you could indicate the recorded call for O=S1OCC2C(CO1)C1(Cl)C(Cl)=C(Cl)C2(Cl)C1(Cl)Cl (centres undefined) .
### Response inactive

### Prompt I would be grateful if you could indicate the recorded call for `O=[N+]([O-])/N=C1\NCCN1Cc1ccc(Cl)nc1` .
### Response inactive

### Prompt I would be grateful if you could indicate the recorded call for `CNC(=O)Oc1ccccc1OC(C)C` .
### Response inactive

### Prompt I would be grateful if you could indicate the recorded call for CCC(C)(NC(=O)c1cc(Cl)c(C)c(Cl)c1)C(=O)CCl (centres undefined) .
### Response inactive

### Prompt I would be grateful if you could indicate the recorded call for CCC(C)Nc1c([N+](=O)[O-])cc(C(C)(C)C)cc1[N+](=O)[O-] (centres undefined) .
### Response inactive

### Prompt I would be grateful if you could indicate the recorded call for `COP(=S)(OC)Oc1ccc(SC)c(C)c1` .
### Response inactive

### Prompt I would be grateful if you could indicate the recorded call for `O=C(O)C(F)(F)C(F)(F)C(F)(F)C(F)(F)C(F)(F)C(F)(F)C(F)(F)F` .
### Response inactive

### Prompt I would be grateful if you could indicate the recorded call for `Cc1cc(C)nc(NC(=O)NS(=O)(=O)c2ccccc2C(=O)OC2COC2)n1` .
### Response inactive

### Prompt I would be grateful if you could indicate the recorded call for `CCOCN(C(=O)CCl)c1c(C)cccc1CC` .
### Response inactive

### Prompt I would be grateful if you could indicate the recorded call for O=C(NC(=O)c1c(F)cccc1F)Nc1ccc(OC(F)(F)C(F)OC(F)(F)F)c(Cl)c1 (centres undefined) .
### Response inactive

### Prompt I would be grateful if you could indicate the recorded call for CC1(c2ccc(Oc3ccccc3)cc2)OC(=O)N(Nc2ccccc2)C1=O (centres undefined) .
### Response inactive

### Prompt I would be grateful if you could indicate the recorded call for `Oc1cc(Cl)ccc1Oc1ccc(Cl)cc1Cl` .
### Response active

### Prompt I would be grateful if you could indicate the recorded call for `CNC(=O)Oc1cccc(N=CN(C)C)c1` .
### Response inactive

### Prompt I would be grateful if you could indicate the recorded call for `COC(=O)c1ccccc1S(=O)(=O)NC(=O)Nc1nc(C)nc(OC)n1` .
### Response inactive

### Prompt I would be grateful if you could indicate the recorded call for CCOC1Oc2ccc(OS(C)(=O)=O)cc2C1(C)C (centres undefined) .
### Response inactive

### Prompt I would be grateful if you could indicate the recorded call for `O=C(O)CCCOc1ccc(Cl)cc1Cl` .
### Response inactive

### Prompt I would be grateful if you could indicate the recorded call for `COc1nn(CSP(=S)(OC)OC)c(=O)s1` .
### Response inactive

### Prompt I would be grateful if you could indicate the recorded call for `CCCN(CCC)c1c([N+](=O)[O-])cc(C(F)(F)F)cc1[N+](=O)[O-]` .
### Response inactive

### Prompt I would be grateful if you could indicate the recorded call for `Clc1ccccc1-c1nnc(-c2ccccc2Cl)nn1` .
### Response inactive

### Prompt I would be grateful if you could indicate the recorded call for `[2H]C1([2H])[n+]2ccccc2-c2cccc[n+]2C1([2H])[2H]` .
### Response inactive

### Prompt I would be grateful if you could indicate the recorded call for `C[C@H]1[C@H](c2ccc(Cl)cc2)SC(=O)N1C(=O)NC1CCCCC1` .
### Response inactive

### Prompt I would be grateful if you could indicate the recorded call for `COC(=O)c1ccccc1CS(=O)(=O)NC(=O)Nc1nc(OC)cc(OC)n1` .
### Response inactive

### Prompt I would be grateful if you could indicate the recorded call for CC1(C)C(C=C(Cl)Cl)C1C(=O)OC(C#N)c1ccc(F)c(Oc2ccccc2)c1 (centres undefined) .
### Response inactive

### Prompt I would be grateful if you could indicate the recorded call for `C#CCN1C(=O)COc2cc(F)c(N3C(=O)C4=C(CCCC4)C3=O)cc21` .
### Response inactive

###

read-out: Tissue plasminogen activator (tPA), PLAT (gene 5327); test: BSK_BE3C_tPA: BioMAP Diversity Plus: BE3C Assay for Tissue plasminogen activator (tPA) Biomarker Activity (AID 2283041); conditions: primary human bronchial epithelial cells; actives raise or lower the signal
Active and inactive are the calls of the source. The calls were made as follows: active = hit-call score of the fitted dose curve at least 0.9, where 1 is the maximum; inactive = score below 0.9.
Answer with one of the outcomes given here: active, inactive

### Prompt I would be grateful if you could indicate the recorded call for `CC(C)OC(=O)Nc1cccc(Cl)c1` .
### Response inactive

### Prompt I would be grateful if you could indicate the recorded call for `O=C1c2ccccc2C(=O)N1SC(Cl)(Cl)Cl` .
### Response inactive

### Prompt I would be grateful if you could indicate the recorded call for `[2H]C1([2H])[n+]2ccccc2-c2cccc[n+]2C1([2H])[2H]` .
### Response inactive

### Prompt I would be grateful if you could indicate the recorded call for `CCC(C)(C)C(=O)OC1=C(c2ccc(Cl)cc2Cl)C(=O)OC12CCCCC2` .
### Response active

### Prompt I would be grateful if you could indicate the recorded call for `O=C(O)COc1ccc(Cl)cc1Cl` .
### Response inactive

### Prompt I would be grateful if you could indicate the recorded call for `COP(=S)(OC)Oc1ccc(SC)c(C)c1` .
### Response inactive

### Prompt I would be grateful if you could indicate the recorded call for `O=[N+]([O-])c1c(Cl)c(Cl)c(Cl)c(Cl)c1Cl` .
### Response inactive

### Prompt I would be grateful if you could indicate the recorded call for CC1(C)C(C=C(Cl)Cl)C1C(=O)OC(C#N)c1ccc(F)c(Oc2ccccc2)c1 (stereo unspecified) .
### Response inactive

### Prompt I would be grateful if you could indicate the recorded call for O=C(NC(=O)c1c(F)cccc1F)Nc1ccc(OC(F)(F)C(F)OC(F)(F)F)c(Cl)c1 (stereo unspecified) .
### Response inactive

### Prompt I would be grateful if you could indicate the recorded call for `C#CCN1C(=O)COc2cc(F)c(N3C(=O)C4=C(CCCC4)C3=O)cc21` .
### Response inactive

### Prompt I would be grateful if you could indicate the recorded call for CCC(C)(NC(=O)c1cc(Cl)c(C)c(Cl)c1)C(=O)CCl (stereo unspecified) .
### Response active

###

read-out: Monocyte Chemoattractant Protein-1 (MCP1), CCL2 (gene 6347); assay: BSK_4H_MCP1: BioMAP Diversity Plus: 4H Assay for Monocyte Chemoattractant Protein-1 (MCP1) Biomarker Activity (AID 2283018); conditions: primary human endothelial cells (HUVEC); actives raise or lower the signal
The source made the active and inactive calls. How the source made its calls: active means hit-call score of the fitted dose curve at least 0.9, where 1 is the maximum; inactive means score below 0.9.
Answer with one of the outcomes given here: y = active, n = inactive

### Prompt I would be grateful if you could indicate the recorded call for `COc1cc(OC)nc(NC(=O)NS(=O)(=O)c2cc(NC=O)ccc2C(=O)N(C)C)n1` .
### Response n

### Prompt I would be grateful if you could indicate the recorded call for O=S1OCC2C(CO1)C1(Cl)C(Cl)=C(Cl)C2(Cl)C1(Cl)Cl (stereo unspecified) .
### Response y

### Prompt I would be grateful if you could indicate the recorded call for `CC(C)OC(=O)Nc1cccc(Cl)c1` .
### Response n

### Prompt I would be grateful if you could indicate the recorded call for O=C(NC(=O)c1c(F)cccc1F)Nc1ccc(OC(F)(F)C(F)OC(F)(F)F)c(Cl)c1 (stereo unspecified) .
### Response n

### Prompt I would be grateful if you could indicate the recorded call for `CCOc1nc(NC)nc(NC(=O)NS(=O)(=O)c2ccccc2C(=O)OC)n1` .
### Response n

### Prompt I would be grateful if you could indicate the recorded call for `COP(=S)(OC)Oc1ccc(SC)c(C)c1` .
### Response n

### Prompt I would be grateful if you could indicate the recorded call for `N#Cc1c(Cl)c(Cl)c(Cl)c(C#N)c1Cl` .
### Response y

### Prompt I would be grateful if you could indicate the recorded call for `CCCN(CCOc1c(Cl)cc(Cl)cc1Cl)C(=O)n1ccnc1` .
### Response y

### Prompt I would be grateful if you could indicate the recorded call for `Oc1cc(Cl)ccc1Oc1ccc(Cl)cc1Cl` .
### Response y

### Prompt I would be grateful if you could indicate the recorded call for `C#CCN1C(=O)COc2cc(F)c(N3C(=O)C4=C(CCCC4)C3=O)cc21` .
### Response n

### Prompt I would be grateful if you could indicate the recorded call for `CNC(=O)Oc1ccccc1OC(C)C` .
### Response n

###

read-out: Tumor necrosis factor (Homo sapiens); assay: BSK_LPS_TNFa: BioMAP Diversity Plus: LPS Assay for Tumour Necrosis Factor alpha (TNFa) Biomarker Activity (AID 2283085); conditions: primary human HUVEC with PBMC; actives raise or lower the signal
Activity calls are given as the source filed them. Rule for the calls: active = hit-call score of the fitted dose curve at least 0.9, where 1 is the maximum; inactive = score below 0.9.
Answer with one of the outcomes given here: active, inactive

### Prompt I would be grateful if you could indicate the recorded call for `CCC(C)(C)C(=O)OC1=C(c2ccc(Cl)cc2Cl)C(=O)OC12CCCCC2` .
### Response active

### Prompt I would be grateful if you could indicate the recorded call for `CC(C)OC(=O)Nc1cccc(Cl)c1` .
### Response inactive

### Prompt I would be grateful if you could indicate the recorded call for `OCCOc1ccccc1` .
### Response inactive

### Prompt I would be grateful if you could indicate the recorded call for `COC(=O)c1ccccc1S(=O)(=O)NC(=O)Nc1nc(C)nc(OC)n1` .
### Response inactive

### Prompt I would be grateful if you could indicate the recorded call for `CCOCN(C(=O)CCl)c1c(C)cccc1CC` .
### Response active

### Prompt I would be grateful if you could indicate the recorded call for `CCOc1nc(NC)nc(NC(=O)NS(=O)(=O)c2ccccc2C(=O)OC)n1` .
### Response inactive

### Prompt I would be grateful if you could indicate the recorded call for `Oc1ccc(Cl)cc1Cc1ccccc1` .
### Response active

### Prompt I would be grateful if you could indicate the recorded call for `COP(=O)(OC)OC=C(Cl)Cl` .
### Response active

### Prompt I would be grateful if you could indicate the recorded call for `CNC(=O)Oc1ccccc1OC(C)C` .
### Response inactive

### Prompt I would be grateful if you could indicate the recorded call for O=S1OCC2C(CO1)C1(Cl)C(Cl)=C(Cl)C2(Cl)C1(Cl)Cl (stereo not drawn) .
### Response active

### Prompt I would be grateful if you could indicate the recorded call for `CN1CSC(=S)N(C)C1` .
### Response active

### Prompt I would be grateful if you could indicate the recorded call for `C#CCN1C(=O)COc2cc(F)c(N3C(=O)C4=C(CCCC4)C3=O)cc21` .
### Response inactive

### Prompt I would be grateful if you could indicate the recorded call for `O=[N+]([O-])/N=C1\NCCN1Cc1ccc(Cl)nc1` .
### Response inactive
